Biological target: Endonuclease 4 (Escherichia coli (strain K12))
Assay: Counterscreen for APE1 Inhibitors: qHTS Validation Assay for Inhibitors of Endonuclease IV (AID 1708)
Conditions: E. coli endonuclease IV, DNA cleavage fluorescence; series mostly up to 57.1 µM
Results filed as inconclusive are left out. Activity calls are given as the source filed them. Calls follow the shape of the dose curve; as a rule, active = well fitted inhibition curve with a large enough effect; inconclusive = small, poorly fitted or top-dose-only effect; inactive = no such curve, though single readings can be large or run the other way.
Pick one and only one: TRUE for active, FALSE for inactive

Query: Recorded test outcome, item "O=C(O)C1=CCNCC1"
Result: FALSE

Query: Recorded test outcome, item "Cc1ccc([N+](=O)[O-])cc1S(=O)(=O)N(C)C"
Result: FALSE

Query: Recorded test outcome, item CC1CNCCN1S(=O)(=O)c1cccc2cnccc12 (centres undefined)
Result: FALSE

Query: Recorded test outcome, item "Cc1nc(N=Nc2cc(S(=O)(=O)O)c3cc([N+](=O)[O-])cc(S(=O)(=O)O)c3c2)c(COP(=O)(O)O)c(C=O)c1O"
Result: TRUE

Query: Recorded test outcome, item O=C(O)C1CCCNC1 (centres undefined)
Result: FALSE

Query: Recorded test outcome, item "Cc1cc2c(cc1Cl)N(C(=O)Nc1ccnc3ccccc13)CC2"
Result: FALSE

Query: Recorded test outcome, item "C[C@H](NC(=O)/C(C#N)=C/c1ccc(O)c(O)c1)c1ccccc1"
Result: FALSE

Query: Recorded test outcome, item CC1=C(C(=O)O)N2C(=O)[C@@H](NC(=O)C(N)C3=CCC=CC3)[C@H]2SC1 (some centres undefined)
Result: FALSE

Query: Recorded test outcome, item "NC(N)=NC(N)=Nc1cccc(Cl)c1"
Result: FALSE

====

Test: qHTS for Activators of Parkin Expression: LOPAC Validation Assay (FLuc Reporter) (AID 720573;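 as to activation: 0% = DMSO and 100% = positive control compounds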)
Conditions: Cell line, PRKN promoter firefly luciferase reporter; series mostly up to 46.1 µM
Records with an inconclusive call do not appear. Activity calls are given as the source filed them. Calls follow the shape of the dose curve; as a rule, active = well fitted activation curve with a large enough effect; inconclusive = small, poorly fitted or top-dose-only effect; inactive = no such curve, though single readings can be large or run the other way.
Pick one and only one: label 1 (active), label 0 (inactive)

Query: Recorded test outcome, item CC(O)C(O)[C@H]1CNc2nc(N)[nH]c(=O)c2N1 (some centres not stated)
Result: label 0

Query: Recorded test outcome, item "COC(=O)[C@H](NC(=O)c1cc(-c2ccccc2)nc2ccccc12)c1ccccc1"
Result: label 0

Query: Recorded test outcome, item "COc1ccc(-c2cc3ncc(C)n3c(Nc3ncccc3C(N)=O)n2)cc1OC"
Result: label 0

Query: Recorded test outcome, item "C[C@@]1(C2CCCC2)Cc2cc(OCC(=O)O)c(Cl)c(Cl)c2C1=O"
Result: label 0

Query: Recorded test outcome, item "Cc1ccc2c(c1)C(N1CCN(C)CC1)=Nc1cccnc1N2"
Result: label 0

Query: Recorded test outcome, item "N#C/C(=C\c1ccc(O)c(O)c1)C(=O)NCCCNC(=O)/C(C#N)=C/c1ccc(O)c(O)c1"
Result: label 0

Query: Recorded test outcome, item C=C1C[C@@]23CC[C@H]4[C@@](C)(CCC[C@@]4(C)C(=O)OC4OC(CO)C(O)C(O)C4O)[C@@H]2CC[C@]1(OC1OC(CO)C(O)C(O)C1OC1OC(CO)C(O)C(O)C1O)C3 (some centres not stated)
Result: label 0

Query: Recorded test outcome, item CN1C2CCC1CC(OC(c1ccccc1)c1ccccc1)C2 (configuration not stated)
Result: label 0

Query: Recorded test outcome, item CC(=O)[C@H]1CCC2C3CC=C4C[C@@H](OS(=O)(=O)O)CC[C@]4(C)C3CC[C@@]21C (some centres not stated)
Result: label 0

Query: Recorded test outcome, item "CCCn1c(=O)c2[nH]c(-c3ccc(S(=O)(=O)O)cc3)nc2n(CCC)c1=O"
Result: label 0

Query: Recorded test outcome, item NCC(O)C1CCCCCCC1 (configuration not stated)
Result: label 0

Query: Recorded test outcome, item "N[C@H](C(=O)O)[C@H](Cc1ccccc1)C(=O)O"
Result: label 0

Query: Recorded test outcome, item "CNCCc1cnc(CCC(c2ccccc2)c2ccccc2)[nH]1"
Result: label 0

Query: Recorded test outcome, item "O=C1Cc2c([nH]c3ccc(Br)cc23)-c2ccccc2N1"
Result: label 1

Query: Recorded test outcome, item CN1Cc2sccc2C(c2ccc(O)c(O)c2)C1 (configuration not stated)
Result: label 0

Query: Recorded test outcome, item O=C1C2C=CC=CC2=NC(=S)N1CCN1CCC(=C(c2ccc(F)cc2)c2ccc(F)cc2)CC1 (configuration not stated)
Result: label 0

Query: Recorded test outcome, item "O=C(O)C1CCNCC1"
Result: label 0

Query: Recorded test outcome, item COC1(C2=NCCN2)COc2ccccc2O1 (configuration not stated)
Result: label 0

Query: Recorded test outcome, item "COc1ccc(C(=O)NCc2cccnc2)cc1C(=O)NCc1cccnc1"
Result: label 0

Query: Recorded test outcome, item "O=C(O)/C(=C/c1c(C(=O)O)[nH]c2cc(Cl)cc(Cl)c12)c1ccccc1"
Result: label 0

Query: Recorded test outcome, item CCCCOc1cc(CC2CNC(=O)N2)ccc1OC (configuration not stated)
Result: label 0

Query: Recorded test outcome, item Oc1cc2c(cc1O)C(c1ccccc1)CNCC2 (configuration not stated)
Result: label 0
